Test system: OVCAR-5 ovarian
TEST DESCRIPTION: NCI-60 one-dose screen, 48 h
MEASUREMENT PARAMETERS: 10 µM unless noted
Method: Growth inhibition of the OVCAR-5 human tumor cell line is measured as a screen for anti-cancer activity. Cells are grown in 96 well plates and exposed to the test compound for 48 hours. Compounds are tested at a single concentration, which is 10^-5 M for most compounds. The reported endpoint is percent growth (GI% or GIPRCNT), where numbers from 0 - 100% represent growth inhibition, and numbers from -100% - 0 represent cell death. For example, a value of 40 represents 60% growth inhibition. […]
About 83,000 compounds went through this panel and 20% of them were active in at least one assay; those are over-represented in the sample as a whole. Calls of active or inactive are those of the source. Rule for the calls: active = growth percent below 10; inactive = the rest.
Give your call using only these classes: 1 (yes) = active, 0 (no) = inactive

Consider the following illustrative entries.
- MOLECULE: "COc1ccc(-c2nc(SCC(=O)Nc3ccc(C(=O)/C=C/c4ccc(Cl)cc4)cc3)[nH]c(=O)c2C#N)cc1"
  DISCRETE LABEL: "0 (no)"
- MOLECULE: "O=c1c(F)cn(Cc2ccccc2CCl)c(=O)n1Cc1ccccc1CCl"
  DISCRETE LABEL: "1 (yes)"
- MOLECULE: "COc1ccc(C(=O)c2sc3nc4c(c(-c5cccnc5)c3c2N)CCCC4)cc1OC"
  DISCRETE LABEL: "0 (no)"

Query: Look up the recorded call for COc1cc(/C=C/C(=O)c2cccnc2Nc2ccc(F)cc2)cc(OC)c1OC in this test.
Response: 0 (no)

Query: Look up the recorded call for COc1ccc(C(=O)c2sc3nc(C)cc(C)c3c2N)cc1OC in this test.
Response: 0 (no)

Query: Look up the recorded call for CCOC(=O)c1sc(Nc2ccc(Cl)cc2)nc1C in this test.
Response: 0 (no)

* * *

Exercise: for every item that follows, state its recorded growth.
Tested on: DU-145 prostate
TEST DESCRIPTION: NCI-60 one-dose screen, 48 h (100 = growth as untreated, 0 = no growth, -100 = all killed)
MEASUREMENT PARAMETERS: 10 µM unless noted
Compounds without any hit were thinned out: in the full panel of roughly 83,000, 20% have a hit. Calls of active or inactive are those of the source. Rule for the calls: active = growth percent below 10; inactive = the rest.

Here is how some compounds turned out for growth.
- COMPOUND: "CC[C@@H]1O[C@H](O[C@@H](c2cnc[nH]2)[C@H](NC(=O)c2nc([C@H](CC(N)=O)NC[C@@H](N)C(N)=O)nc(N)c2C)C(=O)N[C@H](C)[C@H](O)[C@H](C)C(=O)N[C@@H](C(=O)NCCc2nc(-c3nc(C(=O)NCCCCN=C(N)N)cs3)cs2)[C@@H](C)O)[C@H](O[C@@H]2O[C@H](CO)[C@H](O)[C@H](OC(N)=O)[C@@H]2O)[C@H](C)[C@@H]1C"
  TESTED ON: "DU-145 prostate"
  growth: "49.4% (inactive)"
- COMPOUND: "COc1ccc(-c2nc(SCC(=O)Nc3ccc(C(=O)/C=C/c4ccc(Cl)cc4)cc3)[nH]c(=O)c2C#N)cc1"
  TESTED ON: "DU-145 prostate"
  growth: "103% (inactive)"
- COMPOUND: "COc1cc(/C=C/C(=O)c2cccnc2Nc2ccc(F)cc2)cc(OC)c1OC"
  TESTED ON: "DU-145 prostate"
  growth: "0.388% (active)"
- COMPOUND: "O=C(C(=O)c1ccc2c(c1)OCO2)c1ccc2c(c1)OCO2"
  TESTED ON: "DU-145 prostate"
  growth: "111% (inactive)"
- COMPOUND: "O=S(=O)(Nc1ccc(I)cc1F)c1ccc(-c2cnc(C3CC3)o2)cc1"
  TESTED ON: "DU-145 prostate"
  growth: "78.2% (inactive)"

# batch size: 3; output growth per entry
1. O=C1c2cc3c(cc2-c2c1c1ccc(Cl)cc1c(=O)n2CCCN1CCOCC1)OCO3
2. NC(=NCCCOc1ccc(Cl)cc1)Nc1ccc(C(F)(F)F)cc1
3. COc1cc2nc(N3CCCC3)nc(Nc3ccccc3)c2cc1OC

Response:
1. 26.9% (inactive)
2. 20.4% (inactive)
3. 9.82% (active)

# batch size: 5; output growth per entry
1. Cc1ccc2c(C(C[N+](=O)[O-])c3ccccc3)c(-c3ccccc3)[nH]c2c1 (stereo not given)
2. Nc1ccc(-c2cc3c(NCc4ccccc4)ncnc3s2)cc1
3. NC(=O)c1cc(Br)ccc1NC(=O)/C=C/c1ccccc1
4. Cc1c(/C=C/[N+](=O)[O-])ccc2c1[nH]c1ccccc12
5. CN(C)c1ccc(N=Nc2ccccn2)c(O)c1

Response:
["30.3% [9.5 µM] (inactive)", "55.8% (inactive)", "-5.67% (active)", "99.3% (inactive)", "21.6% (inactive)"]

Data credit: PubChem BioAssay (NCI)
